Exercise: for every item that follows, state its recorded log10(TGI).
# System: NCI-H522 lung
# MEASUREMENT_DESCRIPTION: NCI tumour cell line growth inhibition, 48 h
A difference of one corresponds to tenfold TGI; all values are log10 with TGI in µM.

input: Quick check: log10(TGI) of Cl.[O-]c1cccc2cccnc12.[O-]c1cccc2cccnc12.[O-]c1cccc2cccnc12.[O-]c1cccc2cccnc12.[Ti+4] ?
output: -0.59

input: Likewise for Oc1ccccc1/C=N\Nc1ccccc1 ?
output: 1.92

input: Likewise for COc1ccc2nc3c([N+](=O)[O-])ccc4c3c(c2c1)N=CN4CCN(C)C ?
output: 0.99

input: Likewise for CCCn1cc(/C=N\N=C2\C(=O)Nc3ccc(C)cc32)c2ccccc21 ?
output: 0.82

input: Likewise for Cc1ccc2c(c1)C(=O)/C(=C/c1cccc(OCC(=O)c3ccc(Cl)cc3)c1)CS2 ?
output: 1.26

input: Likewise for COc1cc2c(c(OC)c1)C(=O)C(=O)C(CC1(C)OCCCO1)=C2 ?
output: 0.43

###

# Tested on: BT-549 breast
# MEASUREMENT_DESCRIPTION: NCI tumour cell line growth inhibition, 48 h; in the data active = GI50 below about 0.43 µM; inactive = the rest
Classes to choose from: active, inactive

input: Give the logged outcome of this assay for the following molecule: Cc1cc(C(=O)CC(Cl)=C(Cl)Cl)c(Cl)cc1Cl
output: inactive

input: Likewise for Cc1nccc2c3ccc(OCc4cn(-c5ccc(Br)cc5)nn4)cc3n(CCCc3ccccc3)c12 ?
output: inactive

input: Likewise for NS(=O)(=O)c1ccc(-n2nc(-c3ccccc3)cc2-c2cc(O)ccc2O)cc1 ?
output: inactive

input: Likewise for COC(=O)c1cc2c([nH]c3ccccc32)c(-c2nc3ccccc3cc2CO)n1 ?
output: inactive

input: Likewise for CCN(CC)CCOc1ccc(NC(=O)C(C(C)C)N2C(=O)/C(=C/c3ccc(Br)cc3)SC2=S)cc1 (stereo unspecified) ?
output: inactive

input: Likewise for N#Cc1ccc(C(=O)c2cnn(-c3ccc(F)cc3)c2N)cc1 ?
output: inactive

input: Likewise for CCc1c2c(nc3ccc(OC(=O)OCc4ccc(B5OC(C)(C)C(C)(C)O5)cc4)cc13)-c1cc3c(c(=O)n1C2)COC(=O)[C@]3(O)CC ?
output: active

input: Likewise for COc1ccc(-c2nsc3c2NC(=O)CC3c2cccc(F)c2)cc1 (stereo unspecified) ?
output: inactive

input: Likewise for O=C(CS(=O)c1nc2ccccc2nc1-c1ccccc1)Nc1ccc(Cl)cc1 (stereo unspecified) ?
output: inactive

input: Likewise for CCCn1cc(/C=N\N=C2\C(=O)Nc3ccc(C)cc32)c2ccccc21 ?
output: inactive

input: Likewise for O=C(O)CC(S)C(=O)O.[Li+].[Sb] (stereo unspecified) ?
output: inactive

###

# Test system: 786-0 renal
# MEASUREMENT_DESCRIPTION: NCI tumour cell line growth inhibition, 48 h
Exercise: for every item that follows, state its recorded TGI.

input: Quick check: TGI of CC1(C)C=C(N2CCN(C3=CC(C)(C)NC(C)(C)C3)CC2)CC(C)(C)N1 ?
output: > 100 µM

input: Likewise for COc1cc(Cn2c3ccccc3c3cc(C)cc(OC)c32)cc2c1[nH]c1ccccc12 ?
output: > 25 µM

input: Likewise for CCCCCCCC(=O)OC(COC(=O)Cc1ccccc1)COC(=O)C(C)(C)C (stereo unspecified) ?
output: > 100 µM

input: Likewise for Cn1c2ccccc2c(=NNc2ccc(S(=O)(=O)N=C(N)N)cc2)c2ccccc21 ?
output: 19.2 µM

input: Likewise for CCN(CC)CCC(=O)Nc1ccc2sc3ccccc3c(=O)c2n1 ?
output: 35.1 µM

input: Likewise for CCCCCC1CC=CC(NC(=O)OCc2ccccc2)C1/C=C/CCCC1OCCO1 (stereo unspecified) ?
output: > 100 µM

###

# Test system: P388/ADR leukemia
# MEASUREMENT_DESCRIPTION: NCI tumour cell line growth inhibition, 48 h
PROPERTY_NAME: TGI (µM)
Entry rule: numbers only, all in µM.

input: TGI of CN(CO)c1nc(N(C)CO)nc(N(C)CO)n1 on P388/ADR leukemia?
output: 69.1

input: Likewise for CCC/C=C/C=C\C(=O)O[C@@H]1[C@@H](C)[C@]2(O)[C@@H]3C=C(C)C(=O)[C@H]3CC(COC(C)=O)=C[C@H]2[C@@H]2C(C)(C)[C@]12OC(C)=O ?
output: 300

###

# Tested on: A549 NSCLC
# MEASUREMENT_DESCRIPTION: NCI tumour cell line growth inhibition, 48 h
Exercise: for every item that follows, state its recorded TGI.
Entry rule: numbers only, all in µM.

input: Quick check: TGI of CCC/C=C/C=C\C(=O)O[C@@H]1[C@@H](C)[C@]2(O)[C@@H]3C=C(C)C(=O)[C@H]3CC(COC(C)=O)=C[C@H]2[C@@H]2C(C)(C)[C@]12OC(C)=O ?
output: 97.6

input: Likewise for CN(CCCCCCCCNc1ccnc2ccccc12)Cc1ccc(-c2ccc(-c3ccc(C#N)cc3)s2)cc1 ?
output: 2.94

input: Likewise for COC1=C(OC)C(=O)C(C/C=C/c2c(Cl)nc3sccn23)=C(C)C1=O ?
output: 33.3

input: Likewise for COc1ccccc1/C=C1\CCC(CN2CCOCC2)C1=O (stereo not drawn) ?
output: 45

###

Exercise: for every item that follows, state its recorded TGI.
# Tested on: UO-31 renal
# MEASUREMENT_DESCRIPTION: NCI tumour cell line growth inhibition, 48 h

input: Quick check: TGI of COc1c(N2CCCCC2)c2c(=O)c3ccccc3oc2c2c3ccccc3n(C)c12 ?
output: > 100 µM

input: Likewise for O=C(O)C1C2C=CC(O2)C1C(=O)NCc1ccncc1 (stereo unspecified) ?
output: > 100 µM

input: Likewise for CN(C)C[C@@H]1CCn2cc(c3ccccc32)C2=C(C(=O)NC2=O)c2cn(c3ccccc23)CCO1 ?
output: 3.23 µM

input: Likewise for O=[N+]([O-])c1cc(C(F)(F)F)cc2n[se]nc12 ?
output: 14.1 µM

input: Likewise for N#CCCN(c1ccc(C=Nc2ccc(C(=O)O)cc2)cc1)S(=O)(=O)c1ccccc1 ?
output: > 100 µM

input: Likewise for CSc1nc(SC)c2c(C)c(Br)[nH]c2n1 ?
output: > 100 µM

input: Likewise for N#Cc1ccc(O)c(C2=NCC(c3ccc(-c4ccccc4)cc3)O2)c1 (stereo unspecified) ?
output: 4.13 µM

input: Likewise for COc1ccc(OC)c(CCc2ccccc2CC(=O)O)c1 ?
output: > 100 µM

input: Likewise for CCCCCCC(O)C(=O)OC1C2C(CC1(C)C)C(O)C13OC1C(O)C1(CO1)[C@@]23C (stereo partly specified) ?
output: > 100 µM

input: Likewise for O=C(NCCCN1CCN(CCCNC(=O)c2cc(-c3ccccc3)nc3ccccc23)CC1)c1cc(-c2ccccc2)nc2ccccc12 ?
output: > 42.2 µM

input: Likewise for O=C(Nc1ccccc1)c1cc2cc(CCl)ccc2oc1=O ?
output: > 100 µM

input: Likewise for CCCC1(N2C(=O)c3ccc4c5c(ccc(c35)C2=O)N(C2(CCC)CCCCC2)C4=O)CCCCC1 ?
output: > 100 µM

input: Likewise for COC(=O)CCc1cc(OC)c2oc(-c3ccc(OC)c(OC)c3)c(CO)c2c1 ?
output: > 100 µM

input: Likewise for CCOC(=O)c1cc(C2CCN(Cc3ccccc3)C2=O)c(C(=O)/C=C(/C)N)[nH]1 (stereo unspecified) ?
output: > 100 µM

input: Likewise for O=C(N/N=C/c1cc(Cl)cc(Cl)c1[OH2+])c1ccncc1.O=S(=O)([O-])[O-].[Fe+2] ?
output: 31.1 µM

input: Likewise for C[C@H]1[C@H](C)CC[C@]2(C(=O)O)CCC3(COC(=O)/C=C/c4ccc(O)cc4)C(=CCC4[C@@]5(C)CC[C@H](O)C(C)(C)C5CC[C@]43C)[C@H]12 (stereo partly specified) ?
output: 15.6 µM

input: Likewise for COc1c(-c2ccc(F)cc2)oc2c(CC(=O)O)cccc2c1=O ?
output: 96.6 µM

input: Likewise for O=C(O)c1ccccc1/C=N\N(CCO)C1=NCCN1 ?
output: > 100 µM

input: Likewise for Oc1ccccc1/C=N\Nc1ccccc1 ?
output: 36.3 µM

input: Likewise for NC1C2C=CC(C2)C1C(=O)O (stereo unspecified) ?
output: > 100 µM

input: Likewise for C[C@@]12C[C@@H](c3ccccc3O1)N1CCCSC1=N2 ?
output: > 100 µM

###

# System: RPMI-8226 leukemia
# MEASUREMENT_DESCRIPTION: NCI tumour cell line growth inhibition, 48 h
Quick rule: TGI of at least 30 µM means 1, below that means -1.

input: Determine whether this compound has TGI no lower than 30 µM: CN(CCO)c1nc(=O)c2c(n1C1OC(CO)C(O)C(O)C1O)CCCC2 (stereo not drawn)
output: 1

input: Likewise for NC1C2C=CC(C2)C1C(=O)O (stereo not drawn) ?
output: 1

input: Likewise for Cc1ccc2c(c1)C(=O)/C(=C/c1cccc(OCC(=O)c3ccc(Cl)cc3)c1)CS2 ?
output: -1

input: Likewise for COC(=O)N1C2C(C[C@@]1(C)C(=O)OC)c1ccccc1N2S(=O)(=O)c1ccccc1 (stereo partly drawn) ?
output: 1

input: Likewise for O=C(CC1(O)C(=O)Nc2c(Cl)cc(Cl)cc21)c1ccc([N+](=O)[O-])cc1 (stereo not drawn) ?
output: 1

input: Likewise for CCC1=CCC(P(=O)(c2ccccc2)c2ccccc2)CC1C (stereo not drawn) ?
output: 1

input: Likewise for CC(C)(C)C1CCC2c3c([nH]c4ccccc34)C3C(=O)N(c4cc(Cl)ccc4Cl)C(=O)C3C2C1 (stereo not drawn) ?
output: 1

input: Likewise for Cn1c2ccccc2c2c(=O)n(CCCC(=O)NCCc3cnc[nH]3)c3c(-c4ccccc4)nnn3c21 ?
output: -1

input: Likewise for N#CCCN(c1ccc(C=Nc2ccc(C(=O)O)cc2)cc1)S(=O)(=O)c1ccccc1 ?
output: 1

input: Likewise for C=C1CCCC2OC(OC)CCC12 (stereo not drawn) ?
output: 1

input: Likewise for CC1OC(OC2C(O)C(OCCc3ccc(O)c(O)c3)OC(CO)C2OC(=O)/C=C/c2ccc(O)c(O)c2)C(O)C(O)C1O (stereo not drawn) ?
output: 1

input: Likewise for O=C(O)c1ccc(Nc2nc3ccc(C(F)(F)F)cc3nc2C(=O)O)cc1 ?
output: 1

input: Likewise for O=C(N/N=C/c1cc(Cl)cc(Cl)c1[OH2+])c1ccncc1.O=S(=O)([O-])[O-].[Fe+2] ?
output: -1

input: Likewise for O=S1(=O)OCCOS(=O)(=O)C1(Br)Br ?
output: 1

input: Likewise for CC(=O)c1sc2c(c1OC(=O)c1ccccc1)c(=O)n(-c1ccccc1)c(=S)n2-c1ccccc1 ?
output: -1

input: Likewise for O=c1oc2ccc(I)cc2c(=O)n1-c1ccc(I)cc1F ?
output: -1

input: Likewise for CC1=C(C(=O)Nc2ccccc2C)C(c2ccccc2O)C(C(=O)Nc2ccccc2C)=C(C)N1 ?
output: 1

input: Likewise for Cc1nnc(N)nc1C/C=C/C(C)Sc1ccc(Cl)cc1 (stereo not drawn) ?
output: 1

input: Likewise for CCCCCCCCCCCCCP(=O)(OC)OC ?
output: 1

input: Likewise for CSC(=NC(=O)c1ccccc1)SCCSC(=NC(=O)c1ccccc1)SC ?
output: 1

input: Likewise for Cc1cc2oc(=O)cc(OC/C=C3/CCC(=O)O3)c2cc1C ?
output: -1

input: Likewise for CC(C)C1CCC(=O)CC1CCCCC1CC(=O)CC1O[Si](C)(C)C(C)(C)C (stereo not drawn) ?
output: -1

input: Likewise for CCOC(=O)C1=C(C)C2C3C(=O)OC(=O)C3C1(C)C1C(=O)OC(=O)C21 (stereo not drawn) ?
output: 1

input: Likewise for Cc1cnc2c(c1)C(=O)N(c1ccc(Br)cc1)S2(=O)=O ?
output: 1

input: Likewise for CC(C)c1ccc(C(c2c(O)c3ccccc3oc2=O)c2c(O)c3ccccc3oc2=O)cc1 ?
output: 1

input: Likewise for CC1=C(N2CC2)C(=O)C(C)=C(N2CC2)C1=O ?
output: -1
